Hello, the source for this data is PubChem BioAssay AID434951, in case you need it.

SYSTEM: Hypoxia-inducible factor 1-alpha (Homo sapiens)
ASSAY_COMMENT: activators of HIF1alpha nuclear accumulation, confirmation, imaging, fluorescence, U2OS GFP-HIF1alpha (AID 434951)
PROTOCOL_CONDITIONS: U2OS GFP-HIF1alpha nuclear intensity, high-content imaging
The source made the active and inactive calls.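 The calls were made as follows: active = a fitted half-maximal concentration EC50 for the rise in nuclear signal no higher than ten times the top dose tested; inconclusive = flat fit with activity between 30% and 70%, or unusable fit; inactive = EC50 beyond ten times the top dose.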
The reply should be one of these categories: true (active), false (inactive)

>>> group("CCOc1cc(N2CCOCC2)c(OCC)cc1NC(C)C(=O)N1CCC(C)CC1 (stereo unspecified)")
"false"

// outcome(item) with item = COc1cccc(C(=O)N/N=C(/c2ccccc2)c2ccccn2)c1
true

Short answer needed: outcome of this test for COc1cccc(OCc2cc(C(=O)N3CCN(c4ccccc4OC)CC3)no2)c1 ?
false

Any idea what this test logged for O=C(N/N=C/c1cccnc1)c1ccc(NC(=O)c2ccc(Cl)cc2)cc1 ?
false

Which result was noted for this molecule in the test: CCOC(=O)c1c(S(=O)(=O)N2CCC(C)CC2)c(C)n(C)c1C
false

// param item: O=C(Nc1ccc2ccccc2c1)c1ccccc1O ; yields the recorded call
false
